Sourced from ChEMBL document CHEMBL1158999

# Test system: Artemia salina
# Test Method Notes: Toxicity in Artemia salina
# Assay type: organism-based
# Condition Context: in vivo
LC50 values for the compounds below.
Write down the numeric answer in ppm and omit the unit.

Task: Give its LC50 value. Item: C=C1OC(=O)/C(=C\CCCCCCCCCCCCCCC)[C@@H]1O [LINDERANOLIDE]
Result: 5.23

Task: Can you look up the measured LC50 of CCCCC/C=C\C/C=C\CCCC(C)=O for me?
Result: 2.9

###

# Tested on: A549
# Test Method Notes: Cytotoxicity against human A549 cells
# Assay type: functional
# Condition Context: read-out: ED50 (the source's name)
Endpoint Name: EC50 (µg/mL)
Respond with the bare value in µg/mL.

Solved cases below.
C=CCCCCCCCCC/C=C1\C(=O)OC(=C)[C@H]1O; 3.32
C=C1OC(=O)/C(=C/CCCCCCCCCCCCCCC)[C@@H]1O [ISOLINDERANOLIDE]; 4.57
C=C1OC(=O)/C(=C\CCCCCCCCCCCCCCC)[C@@H]1O [LINDERANOLIDE]; 0.928
COc1cccc2c1C(=O)c1c(O)c3c(c(O)c1C2=O)C[C@@](O)(C(=O)CO)C[C@@H]3O[C@H]1C[C@H](N)[C@H](O)[C@H](C)O1; 0.0018
C=C1OC(=O)/C(=C/CCCCCCCCCCCCC)[C@@H]1O; 3.75

Task: Recall the recorded EC50 for C=C1OC(=O)/C(=C/CCCC/C=C\CCCCCCCCC)[C@@H]1O [ISOLINDERENOLIDE] with A549 and state it.
Result: 3.01

###

# Test system: Artemia salina
# Test Method Notes: Toxicity in Artemia salina
# Type: organism-based
# Condition Context: in vivo
// assign y if LC50 falls strictly below 0.7 ppm, else n (ties count as n)

// below: answered compounds
C=C1OC(=O)/C(=C/CCCC/C=C\CCCCCCCCC)[C@@H]1O [ISOLINDERENOLIDE]; y
C=CCCCCCCCCC/C=C1\C(=O)OC(=C)[C@H]1O; y
C=C[C@](C)(O)CC/C=C(/C)CCC=C(C)C; n
COc1cccc2c1C(=O)c1c(O)c3c(c(O)c1C2=O)C[C@@](O)(C(=O)CO)C[C@@H]3O[C@H]1C[C@H](N)[C@H](O)[C@H](C)O1; y
CC/C=C\C/C=C\C/C=C\CCCC(C)=O; n
C=CCCCCCCCCC/C=C1/C(=O)OC(=C)[C@H]1O; y
C=C1OC(=O)/C(=C\CCCCCCCCCCCCC)[C@@H]1O; n

Task: For this compound, is LC50 lower than 0.7 ppm? C=C1OC(=O)/C(=C/CCCCCCCCCCCCCCC)[C@@H]1O [ISOLINDERANOLIDE]
Result: n

###

# Test system: A549
# Test Method Notes: Cytotoxicity against human A549 cells
# Type: functional
# Condition Context: read-out: ED50 (the source's name)
This section presents compounds with their documented EC50 values.

These recorded examples may help you get a feel for the data.
C=CCCCCCCCCC/C=C1/C(=O)OC(=C)[C@H]1O [ISOOBUTASILACTONE]; > 10 µg/mL
C=C[C@](C)(O)CC/C=C(/C)CCC=C(C)C; > 10 µg/mL
C=C1OC(=O)/C(=C\CCCCCCCCCCCCC)[C@@H]1O [OBTUSILACTONE A]; > 10 µg/mL
CC/C=C\C/C=C\C/C=C\CCCC(C)=O; > 10 µg/mL

// next entry
Task: Data request, read-out EC50, for CCCCC/C=C\C/C=C\CCCC(C)=O
Result: > 10 µg/mL
